Answer each item with its documented self-cleavage.
B1: LINE1-mini (parent)
chain: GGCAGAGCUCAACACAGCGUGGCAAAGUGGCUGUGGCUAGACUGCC

- Variants of: B1
- protocol-text: self-cleavage, relative activity (ratio to wild type); higher = more cleavage; in vitro, sequencing; the parent is a self-cleaving ribozyme
Answers are plain numbers.

Sample records with self-cleavage:
[
  {
    "mutant-code": "C13G G33C",
    "self-cleavage": 0.04
  },
  {
    "mutant-code": "A26G G27U",
    "self-cleavage": 0.94
  },
  {
    "mutant-code": "A12G G27A",
    "self-cleavage": 0.03
  },
  {
    "mutant-code": "C13A C31U",
    "self-cleavage": 0.09
  },
  {
    "mutant-code": "G7A A16U",
    "self-cleavage": 0.32
  },
  {
    "mutant-code": "G5A U38G",
    "self-cleavage": 0.02
  },
  {
    "mutant-code": "A11G C45G",
    "self-cleavage": 0.03
  },
  {
    "mutant-code": "A25G C31U",
    "self-cleavage": 0.13
  },
  {
    "mutant-code": "A4G G29C",
    "self-cleavage": 0.12
  },
  {
    "mutant-code": "G27C A41U",
    "self-cleavage": 0.25
  }
]

Please report self-cleavage for every entry that follows.
1. A11G A24G
2. C31U C42G

// result
1. 0.02
2. 0.04
